Where do the numbers come from? From ChEMBL document CHEMBL1142348.

- Assay explanation: Solubility in water at pH 2
- Format: physicochemical
Listed here are compounds together with their documented solubility.

{"Compound": "Cc1ccc(Oc2ccc(N(C[C@H](O)C(=O)NO)S(C)(=O)=O)cc2)cc1", "solubility": "< 5 µg/mL"}
{"Compound": "Cc1ccc(Oc2ccc(N(CC(C)(O)C(=O)NO)S(C)(=O)=O)cc2)cc1 (racemic)", "solubility": "< 5 µg/mL"}

###

- Assay explanation: Stability in human liver microsomes

{"Compound": "Cc1ccc(Oc2ccc(N(CC(C)(O)C(=O)NO)S(C)(=O)=O)cc2)cc1 (racemic)", "Units text": "h", "half-life": 1.72}

###

- Assay explanation: Volume of distribution in rat at steady state at 0.5 mg/kg, iv
- Type: ADME, organism-based
- Design: dose 0.5 mg/kg, route intravenous
- Assay conditions: in vivo, read-out: Vdss
Catalogue of Vd values

{"Compound": "Cc1ccc(Oc2ccc(N(CC(C)(O)C(=O)NO)S(C)(=O)=O)cc2)cc1 (racemic)", "Vd / L/kg": 1.5}
{"Compound": "Cc1ccc(Oc2ccc(N(C[C@H](O)C(=O)NO)S(C)(=O)=O)cc2)cc1", "Vd / L/kg": 1.4}

###

Data export: pIC50 values recorded with 72 kDa type IV collagenase (Homo sapiens, UniProt P08253).
Sequence (P08253 whole entry): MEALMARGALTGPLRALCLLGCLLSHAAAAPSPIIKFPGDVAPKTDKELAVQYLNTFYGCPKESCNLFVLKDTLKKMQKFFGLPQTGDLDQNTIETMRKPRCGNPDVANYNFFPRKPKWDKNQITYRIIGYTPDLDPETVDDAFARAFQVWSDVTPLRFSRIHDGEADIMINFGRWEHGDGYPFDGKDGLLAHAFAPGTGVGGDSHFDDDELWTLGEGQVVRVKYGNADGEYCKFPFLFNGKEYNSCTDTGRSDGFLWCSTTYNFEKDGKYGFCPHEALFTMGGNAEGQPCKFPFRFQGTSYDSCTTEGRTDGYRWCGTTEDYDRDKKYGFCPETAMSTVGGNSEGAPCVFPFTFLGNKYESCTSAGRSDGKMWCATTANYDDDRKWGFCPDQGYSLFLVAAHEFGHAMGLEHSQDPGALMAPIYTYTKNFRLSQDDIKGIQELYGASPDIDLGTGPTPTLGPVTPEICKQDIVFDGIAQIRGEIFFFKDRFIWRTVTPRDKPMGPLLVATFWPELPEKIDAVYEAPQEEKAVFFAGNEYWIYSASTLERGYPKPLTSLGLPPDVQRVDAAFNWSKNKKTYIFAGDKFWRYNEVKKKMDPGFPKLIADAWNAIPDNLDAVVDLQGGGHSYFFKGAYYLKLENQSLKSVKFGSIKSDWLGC
pIC50: −log10 of the molar value.
Recorded metric: pIC50

{"Molecule": "Cc1ccc(Oc2ccc(N(CC(C)(O)C(=O)NO)S(C)(=O)=O)cc2)cc1 (racemic)", "Target or system": "72 kDa type IV collagenase (Homo sapiens, UniProt P08253)", "Inequality operator": "=", "Assay value": 7.70}
{"Molecule": "CS(=O)(=O)N(C[C@H](O)C(=O)NO)c1ccc(OCc2ccc(F)cc2)cc1", "Target or system": "72 kDa type IV collagenase (Homo sapiens, UniProt P08253)", "Inequality operator": "=", "Assay value": 5.64}
{"Molecule": "Cc1ccc(Oc2ccc(N(C[C@@H](O)C(=O)NO)S(C)(=O)=O)cc2)cc1", "Target or system": "72 kDa type IV collagenase (Homo sapiens, UniProt P08253)", "Inequality operator": "=", "Assay value": 7.17}
{"Molecule": "CC(C)C(=O)N(C[C@H](O)C(=O)NO)c1ccc(Oc2ccc(Cl)cc2)cc1", "Target or system": "72 kDa type IV collagenase (Homo sapiens, UniProt P08253)", "Inequality operator": "=", "Assay value": 6.54}
{"Molecule": "Cc1ccc(Oc2ccc(N(CCC(=O)NO)S(C)(=O)=O)cc2)cc1", "Target or system": "72 kDa type IV collagenase (Homo sapiens, UniProt P08253)", "Inequality operator": "=", "Assay value": 7.21}
{"Molecule": "CS(=O)(=O)N(C[C@H](O)C(=O)NO)c1ccc(OCc2ccc(C(F)(F)F)cc2)cc1", "Target or system": "72 kDa type IV collagenase (Homo sapiens, UniProt P08253)", "Inequality operator": "=", "Assay value": 5.54}
{"Molecule": "CS(=O)(=O)N(C[C@H](O)C(=O)NO)c1ccc(S(=O)(=O)c2ccccc2)cc1", "Target or system": "72 kDa type IV collagenase (Homo sapiens, UniProt P08253)", "Inequality operator": "<", "Assay value": 5.00}
{"Molecule": "CS(=O)(=O)N(C[C@H](O)C(=O)NO)c1ccc(Oc2ccccc2)cc1", "Target or system": "72 kDa type IV collagenase (Homo sapiens, UniProt P08253)", "Inequality operator": "=", "Assay value": 6.61}
{"Molecule": "CS(=O)(=O)N(C[C@H](O)C(=O)NO)c1ccc(Sc2ccc(F)cc2)cc1", "Target or system": "72 kDa type IV collagenase (Homo sapiens, UniProt P08253)", "Inequality operator": "=", "Assay value": 6.55}

###

- Assay explanation: Selectivity ratio, IC50 for full length MMP2 to IC50 for catalytic domain MMP9

{"Record smiles": "Cc1ccc(C#Cc2ccc(N(C[C@H](O)C(=O)NO)S(C)(=O)=O)cc2)cc1", "Ratio IC50": 1.1}
{"Record smiles": "CS(=O)(=O)N(C[C@H](O)C(=O)NO)c1ccc(C#Cc2ccc(Cl)cc2)cc1", "Ratio IC50": 1.2}
{"Record smiles": "Cc1ccc(Oc2ccc(N(C[C@H](O)C(=O)NO)S(=O)(=O)Cc3ccccc3)cc2)cc1", "Ratio IC50": 6.3}
{"Record smiles": "Cc1ccc(Sc2ccc(N(C[C@H](O)C(=O)NO)S(C)(=O)=O)cc2)cc1", "Ratio IC50": 5.5}
{"Record smiles": "COc1ccc(C#Cc2ccc(N(C[C@H](O)C(=O)NO)S(C)(=O)=O)cc2)cc1", "Ratio IC50": 0.4}
{"Record smiles": "CS(=O)(=O)N(C[C@H](O)C(=O)NO)c1ccc(OCc2ccc(Cl)cc2)cc1", "Ratio IC50": 0.9}
{"Record smiles": "CS(=O)(=O)N(C[C@H](O)C(=O)NO)c1ccc(Oc2ccc(C(F)(F)F)cc2)cc1", "Ratio IC50": 9.9}
{"Record smiles": "Cc1ccc(Oc2ccc(N(C[C@H](O)C(=O)NO)S(=O)(=O)Cc3cccnc3)cc2)cc1", "Ratio IC50": 5.8}
{"Record smiles": "CS(=O)(=O)N(C[C@H](O)C(=O)NO)c1ccc(Sc2ccc(F)cc2)cc1", "Ratio IC50": 2.7}
{"Record smiles": "CS(=O)(=O)N(C[C@H](O)C(=O)NO)c1ccc(Oc2ccc(Cl)cc2)cc1", "Ratio IC50": 7.4}
{"Record smiles": "CCS(=O)(=O)N(C[C@H](O)C(=O)NO)c1ccc(Oc2ccc(C)cc2)cc1", "Ratio IC50": 5.1}
{"Record smiles": "Cc1ccc(Oc2ccc(N(C[C@H](O)C(=O)NO)S(=O)(=O)Cc3ccncc3)cc2)cc1", "Ratio IC50": 6.4}
